system: NCI-H522 lung; experiment: NCI tumour cell line growth inhibition, 48 h

Compound	Unit string	Qualifier symbol	TGI
CN(C)c1ccc(/C=C(\C#N)c2cc3ccccc3[nH]2)cc1	µM	>	100
CC(=O)OCC1OC(n2cccnc2=O)C(OC(C)=O)C1OC(C)=O (stereo not given)	µM	>	100
C=C1c2nc3ccccc3n2C=C(c2ccccc2)N1c1ccc(Cl)cc1	µM	>	100
Nc1ccccc1C#C/C=C\C#Cc1ccccc1C#CCO	µM	=	28.2
Nc1[nH]nc2nc(-c3cc(Cl)ccc3Cl)cc(-c3ccc(F)cc3)c12	µM	=	31.5
CCN(CC)C1Oc2cc3c(cc2C(c2cc(OC)c(O)c(OC)c2)C1C)OCO3 (stereo not given)	µM	=	11
N#C/C(=C\c1cc(O)c(O)c(O)c1)C(N)=O	µM	>	100
Clc1sc(Cl)c2c1[C@H](Cl)C[C@@H]2Cl	µM	=	3.31
Cc1cc(O)c2c(c1)C(=O)c1c(c(O)cc(O)c1-c1c(O)cc(O)c3c1C(=O)c1cc(C)cc(O)c1C3=O)C2=O	µM	=	59
CC(Br)CN1CCOCC1 (stereo not given)	µM	>	100
O=C(Sc1c(-c2ccccc2)c(=O)n(-c2ccccc2)c(=S)n1-c1ccccc1)c1ccccc1	µM	>	100
C=CCCCCCCCCCP(=O)(c1ccccc1)c1ccc2c(c1)OCCOCCOCCOCCO2 (stereo not given)	µM	=	24.5
O=C1CSC(c2ccccc2O)N1c1ccc2c(c1)Oc1c(Cl)c3c(c(Cl)c1=N2)Oc1cc(N2C(=O)CSC2c2ccccc2O)ccc1N=3 (stereo not given)	µM	=	52
COc1ccc(N2C(=O)C(Cl)C2c2cc3cc(Br)ccc3nc2Cl)cc1 (stereo not given)	µM	=	8.33
C=C1CC[C@@H]2C13[C@@H]1[C@H](CC(=O)[C@@]23C)C1(C)C (stereo not given in full)	µM	>	100
CC1(c2ccccc2)O[C@@H]2C[C@H]3[C@@H]4CCC5=CC(=O)C=C[C@]5(C)[C@@]4(F)[C@@H](O)C[C@]3(C)[C@]2(C(=O)CO)O1 (stereo not given in full)	µM	=	25
NS(=O)(=O)c1ccc(N=Nc2ccc[nH]c2=O)cc1	µM	>	100
COc1cccc2c1C(=O)c1c(O)c3c(c(O)c1C2=O)C[C@@](O)(/C(CO)=N/NC(=O)CCCCCN1C(=O)C=CC1=O)C[C@@H]3O[C@H]1C[C@H](N)[C@H](O)[C@H](C)O1	µM	=	4.21
CCCC(=O)OCC1OC(n2cc(F)c(=O)[nH]c2=O)CC1O (stereo not given)	µM	>	10
C[C@@H](Nc1cc(F)cc(F)c1)c1cc(C(=O)N(C)C)cc2c(=O)cc(N3CCOCC3)oc12	µM	>	100

----------
tested on: SNB-19 CNS; assay: NCI tumour cell line growth inhibition, 48 h

Compound	TGI
CCN(CC)CCNC(=O)c1cccc2c1-c1ccccc1C2=O	> 100 µM
Cc1ccccc1NC(=O)/C(=N\NC(N)=S)C(C#N)c1ccccc1 (stereo not given)	> 100 µM
Cc1ccccc1NC(=O)Cc1nc2ccccc2s1	> 100 µM
Cn1c(=O)c2ccccc2[n+]2c(-c3cccc([N+](=O)[O-])c3)csc12	> 100 µM
C/C=C/C(=O)Oc1cccc2cccnc12	> 100 µM
COc1cc(-c2nn(-c3ccc(NC(=O)Nc4cc(C(F)(F)F)cc(C(F)(F)F)c4)cc3)cc2-c2ccncc2)ccc1Cl	3.88 µM
CCOC(=O)[C@@H]1[C@@H](c2ccccc2)N(C)O[C@@]1(c1ccccc1)C(F)(F)F	> 100 µM
O=C(Nc1ccncc1)C(=O)c1cn(S(=O)(=O)c2cccc(Cl)c2)c2ccccc12	> 100 µM
Cn1c(CCCC(=O)O)nc2cc(N(CCCl)CCCl)ccc21	> 100 µM
COc1cccc(Nc2ncnc3cc(NC(=O)CCl)ccc23)c1	3.22 µM

----------
test system: IGROV1 ovarian; experiment: NCI tumour cell line growth inhibition, 48 h
Reported values of TGI for individual entries

Molecule	Measured target	Qualifier symbol	TGI, µM
Cc1c(C(=O)c2ccccc2)[n+](=O)c2cc(Cl)c(Cl)cc2n1[O-]	IGROV1 ovarian	=	5.16
CNC(=O)C(C)Oc1ccc(OCC2CCCCC2)cc1 (centres undefined)	IGROV1 ovarian	>	100
COc1ccc2c(c1)C(=Nc1ccc(F)c(Cl)c1)c1c-2c(Nc2ccc(F)c(Cl)c2)nc2ccccc12	IGROV1 ovarian	>	100
CC1(C)CC[C@]2(C(=O)O)CC[C@]3(C)C(=CCC4=C5C[C@H](O)[C@H](O)[C@@](C)(CO)[C@@]5(C)CC[C@]43C)[C@@H]2C1	IGROV1 ovarian	>	100
CN1CCN(CCCNC(=O)c2c3c(n4ccccc24)C(=O)c2ncccc2C3=O)CC1	IGROV1 ovarian	=	5.06
COc1cccc(NC(=O)CSc2nnc(Cc3ccccc3)o2)c1	IGROV1 ovarian	>	100
COC(=O)c1c[nH]c2cc(OC(C)C)c(OC(C)C)cc2c1=O	IGROV1 ovarian	>	100
CCOC(=O)C1=C(OC(OCC)C([Se]c2ccccc2)C(C)C)CCC1 (centres undefined)	IGROV1 ovarian	=	52.4
CCOP(=O)(C/C=C/Cn1ncc(=O)[nH]c1=O)OCC	IGROV1 ovarian	>	100
CC1=CC(=O)N(c2cccc3c(N4C(=O)C=C(C)C4=O)cccc23)C1=O	IGROV1 ovarian	=	16.2
Cn1c(CCCC(=O)O)nc2cc(N(CCCl)CCCl)ccc21	IGROV1 ovarian	>	100
C=C(Cl)/C(=C\Cl)CCC(Cl)C(C)C (centres undefined) (tested in a mixture with another compound)	IGROV1 ovarian	=	28.4
COc1ccc(N2C(=O)C(Cl)C2c2cc3cc(Br)ccc3nc2Cl)cc1 (centres undefined)	IGROV1 ovarian	=	10.6
O=C(Nc1ccncc1)C(=O)c1cn(S(=O)(=O)c2cccc(Cl)c2)c2ccccc12	IGROV1 ovarian	>	100
Cc1ccc(S(=O)(=O)OCOS(=O)(=O)c2ccc(C)cc2)cc1	IGROV1 ovarian	>	100
COc1cc(S(=O)(=O)Nc2ccc(-c3csc(N4C(=O)C(C)SC4c4cccs4)n3)cc2)ccc1Cl (centres undefined)	IGROV1 ovarian	>	100
CC1=NN(c2ccc(S(=O)(=O)O)cc2)C2(C1)C(Cl)C(=O)N2c1nc2ccccc2s1 (centres undefined)	IGROV1 ovarian	>	100
C/C=C(\N=C=S)C(=O)OC1C(COC(C)=O)OC([C@]2(O)CC(=O)C(=N)C(C(=O)O)=C2O)C(O)C1OC1CC(OC)C(O)([C@@H](C)OC(=O)[C@@H](C)CC)C(C)O1 (some centres undefined)	IGROV1 ovarian	=	36
O=S1SC(=S)C2C=CC=NC21 (centres undefined)	IGROV1 ovarian	=	49.6

----------
tested on: NCI-H226 lung; experiment: NCI tumour cell line growth inhibition, 48 h
Reported values of TGI for individual entries

Molecule	Measured target	TGI
C/C(O)=C(\C=N\C(=S)N=Nc1c(O)[nH]c2ccccc12)C(=O)Nc1ccccc1C	NCI-H226 lung	> 100 µM
COC(=O)c1c[nH]c2cc(OC(C)C)c(OC(C)C)cc2c1=O	NCI-H226 lung	> 100 µM
O=C(Nc1ccncc1)C(=O)c1cn(S(=O)(=O)c2cccc(Cl)c2)c2ccccc12	NCI-H226 lung	> 100 µM
C#C[C@@]1(O)[C@@H](CO)O[C@@H](n2cc(Br)c3c(Cl)ccnc32)[C@@H]1O	NCI-H226 lung	> 27 µM
Cc1ccc(Sc2ccccc2C23OC(C)(C4C(=O)N(c5ccccc5)C(=O)C42)N(C)C3=O)cc1 (stereo not drawn)	NCI-H226 lung	> 100 µM
CN1CCC2(c3ccccc3)CC(=O)/C(=C/c3ccc(Cl)c(Cl)c3)C1C2 (stereo not drawn)	NCI-H226 lung	4.69 µM
C=C1C(=O)O[C@H](c2ccoc2)C[C@@H]1[C@@]1(C)CCCC2(C)C(=O)OCC21 (stereo partly drawn)	NCI-H226 lung	> 100 µM
O=C(Oc1ccccc1)N(c1ccccc1)c1ccccc1	NCI-H226 lung	> 100 µM
N#Cc1c(Cl)cc(C#N)n2c1nc1ccccc12	NCI-H226 lung	71 µM
CC1(C)OCC(CO)(CO)CO1	NCI-H226 lung	> 100 µM
CCOC(=O)c1cc(=O)n(C)c(=O)n1C	NCI-H226 lung	> 100 µM
COc1cc(C(=O)/C=C/c2cc(-c3ccc4c(c3)OCO4)n[nH]2)cc(OC)c1OC	NCI-H226 lung	4.25 µM
CCCCC(=O)/C=c1/cc(C)[nH]c2cccc3cnn1c32	NCI-H226 lung	> 100 µM
CC(=O)[O-].CC(=O)[O-].O=C(N/N=C/c1cc(Cl)cc(Cl)c1[OH2+])c1ccncc1.[Mn+2]	NCI-H226 lung	12.1 µM
CC(C)c1oc(=O)cc2c1C(O)C1OC(=O)C3(C)C(O)C4OC4C2(C)C13 (stereo not drawn)	NCI-H226 lung	19.3 µM
CC(=O)OCC1(C)C(O)CCC2(C)C1CCC1CC3CC12CCC3(O)CO (stereo not drawn)	NCI-H226 lung	> 100 µM
COc1ccc(Cc2cc(Cc3ccc(OC)cc3)cc(Cc3ccc(OC)cc3)c2)cc1	NCI-H226 lung	> 100 µM
N=c1oc2ccccc2cc1C(=O)Nc1cccc2ccccc12	NCI-H226 lung	> 100 µM
